Data provenance is patent US20240317851A1.

Biological target: T1, human Claudin 9 (human, UniProt O95484 1-217)
T1 construct: whole, on cells; also called CLDN9; CLND9
T1 sequence (looked up): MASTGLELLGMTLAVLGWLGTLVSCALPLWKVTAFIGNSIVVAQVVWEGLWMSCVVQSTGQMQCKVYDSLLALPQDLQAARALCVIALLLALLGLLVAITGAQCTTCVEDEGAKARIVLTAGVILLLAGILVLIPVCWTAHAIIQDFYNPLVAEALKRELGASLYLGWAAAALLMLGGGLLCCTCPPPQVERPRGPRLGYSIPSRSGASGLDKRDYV
Experiment: flow cytometry, HEK293/H_CLDN9 cells, Ab titrated from 100 nM
MEASUREMENT_NAME: Top MFI
One number for each entry.

| BINDER | Top MFI |
| --- | --- |
| 97-C10E1-2-P1.z15 (antibody, V domains shown) VH: QVQLQQSGAEVKKPGASMKISCKASGYAFTGYTMNWVRQAPGQNLEWIGLSNPYNAGTIYNQKFKGRATLTVDKSTSTAYMELLSLRSEDTAVYYCARNYYYGSSYAYYYAMDYWGQGTTVTVSS VL: DIVVTQSPSSLSTSVGDRVTITCRSSTGAVTTSNYANWVQEKPGKAFKGLIGGTNNRAPGVPARFSGSLSGDDAALTISSAQPEDFATYFCALWYSNHWVFGGGTKVEIK | 186 |

# context switch: different binder, same Top MFI
// lookup Top MFI for 97-C10E1-2-P1.z8 (antibody, V domains shown) VH: QVQLQQSGAEVKKPGASVKVSCKASGYAFTGYTMNWVRQAPGQNLEWIGLSNPYNAGTIYNQKFKGRVTLTVDKSTSTVYMELLSLRSEDTAVYYCARNYYYGSSYAYYYAMDYWGQGTTVTVSS VL: DAQMTQSPSSLSASVGDRVTITCRSSTGAVTTSNYANWVQQKPGKAPKLLIGGTNNRAPGVPSRFSGSGSGTDATLTISSLQPEDFATYYCALWYSNHWVFGGGTKVEIK
542
